Measured melting point accompanies every entry in the list below.

As a guide, the following entries are already answered.
COMPOUND	RECORDED_RESULT
O=S(=O)(Nc1cccc(CC2Cc3ccc(OCc4nc5cc(F)c(F)cc5s4)cc3C2O)c1)C(F)(F)F (stereo not given)	170 to 172 °C
N#Cc1ncn2c1[C@@H]1CCN1C(=O)c1c-2ccc(F)c1Cl	225 to 228 °C
CC12CCC3C(CC=C4CC(O[Si](C)(C)C)CCC43C)C1CCC2=O (stereo not given)	173 to 174 °C

## Input Bench note: what melting point did C=CCN(c1ccc(Cl)cc1[N+](=O)[O-])S(=O)(=O)c1ccc(C)cc1 show?
## Output 77 to 78 °C

## Input I'd like to know its melting point. The compound in question is CNc1nc(-c2cccc(-c3cnc4c(C)cccc4c3)c2)c2cc(OC)c(OC)cc2n1
## Output 188 to 190 °C

###

Recorded melting point for the following molecules

## Input Can you look up the measured melting point of OC(CCN1CCN(c2ccccc2)CC1)COc1ccc(Br)cc1 (stereo not given) for me?
## Output 100 to 103 °C

## Input # get_value(readout='melting point', item= COc1cc(-c2ncn(-c3cc(OC)c(OC)c(OC)c3)c2-c2ccc(N(C)C)cc2)cc(OC)c1OC )
## Output 169 to 171 °C

## Input Give the measured melting point of Cc1ccc(CNc2ccc(Cl)cc2Cl)c(C)c1 .
## Output 88 to 90 °C

## Input Dear colleague, I am looking for the recorded melting point of the following molecule: CC(C)c1cccc(C(C)C)c1NC(=O)C1c2ccccc2COc2ccc([N+](=O)[O-])cc21 (stereo not given)
## Output 186 to 188 °C

## Input Given the entry O=C(O)C(Cc1ccccc1)Oc1ccc2cc(-c3csc(-c4ccccc4)n3)ccc2c1Br (stereo not given) , report its measured melting point.
## Output 220 to 224 °C

###

# melting point listing for each entry below

Previously resolved entries follow.
COMPOUND	melting point
COC(=O)C1CC1c1ccc(OCc2cccc(Oc3ccccc3)c2)cc1 (stereo unspecified)	55 to 56 °C
COC1C=C(C)C(=O)CC(C)(C)C1OC(=O)c1ccc(N)cc1 (stereo unspecified)	138 to 161 °C
O=c1oc(=O)n(C2CC2)c2cc(F)c(F)cc12	138 to 139 °C
Cc1cc2c(cc1-c1cc(C=C3SC(=O)NC3=O)ccc1OC(F)(F)F)C(C(C)C)=CCC2(C)C	179 °C
c1ccc(-c2cc3c(nn2)-c2ccccc2CN3)cc1	250 to 252 °C

## Input State the recorded melting point for this entry: CC1(C)Oc2ccc(C#N)cc2[C@@H](N2CC(OCc3ccccc3)=CC2=O)[C@@H]1O (relative stereo)
## Output 248 °C

## Input Query (compound): N=C(N)NCCCc1nccs1 ; field requested: melting point
## Output 160 to 163 °C

## Input # query: melting point of entry CCOc1cc(C)ccc1C1CCN(CCCCNC(=O)c2ccc3c(c2)cc(-c2ccc(Cl)cc2)n3C)CC1
## Output 174 to 175 °C

## Input Endpoint output: melting point of CCC(C)(C)c1ccc(OCC(=O)Nc2ccc(Nc3cccc(O)c3)cc2)c(C(C)(C)CC)c1 . Value?
## Output 150 to 152 °C

## Input For the compound COc1cc([N+](=O)[O-])ccc1-c1cccc(C(=O)OC(C)(C)C)c1 , what melting point is on record?
## Output 88 to 88.5 °C

## Input What value of measured melting point is listed for CC(C)c1c(Sc2cccc(Cl)c2)nc(CO)n1C ?
## Output 105 to 106 °C

## Input What value of measured melting point is listed for COc1ccc2[nH]cc(C=C3SC(=S)N(CC(=O)O)C3=O)c2c1 ?
## Output 266 °C
